subjectOfTest: hMC1r (Homo sapiens, UniProt Q01726)
Sequence (Q01726 whole entry): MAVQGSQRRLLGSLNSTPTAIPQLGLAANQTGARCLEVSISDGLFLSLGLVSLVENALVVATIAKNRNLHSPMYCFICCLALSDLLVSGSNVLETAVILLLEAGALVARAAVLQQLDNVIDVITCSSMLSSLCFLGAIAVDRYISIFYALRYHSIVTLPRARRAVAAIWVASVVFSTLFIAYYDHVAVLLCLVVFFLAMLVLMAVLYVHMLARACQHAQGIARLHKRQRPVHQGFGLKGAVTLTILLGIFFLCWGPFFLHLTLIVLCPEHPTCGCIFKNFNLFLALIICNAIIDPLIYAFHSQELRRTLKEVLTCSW
assayProtocol: Assay for agonist activity: cAMP accumulation in HBL melanoma cells
Format: cell-based
Set-up: endogenous in cells; host or cells: HBL human melanoma cells
appliedConditions: HBL, compared to NDP-α-MSH as 100%, read-out: MC-1 Emax (average; cAMP HBL)
Bridge positions count the residues as written; N and C are the ends. Square brackets hold non-standard residues; d marks the D form. Peptide text beside a SMILES is read from it. dPhe(4-Cl) = N[C@H](Cc1ccc(Cl)cc1)C(=O)O; Nle = CCCC[C@H](N)C(=O)O; Orn = NCCC[C@H](N)C(=O)O; Dab = NCC[C@H](N)C(=O)O
outcomeMeasure: Emax (%)

Prompt: Query (molecule): CCCC[C@H](NC(C)=O)C(=O)N[C@H]1CCC(=O)NCC[C@@H](C(=O)N[C@@H](Cc2c[nH]c3ccccc23)C(N)=O)NC(=O)[C@H](CCCNC(=N)N)NC(=O)[C@@H](Cc2ccccc2)NC(=O)[C@H](Cc2c[nH]cn2)NC1=O ; field requested: Emax
Response: 95

[P] CCCC[C@H](NC(C)=O)C(=O)N[C@H]1CCC(=O)NCC[C@@H](C(=O)N[C@H](Cc2ccc3ccccc3c2)C(N)=O)NC(=O)[C@H](CCCNC(=N)N)NC(=O)[C@@H](Cc2ccccc2)NC(=O)[C@H](Cc2c[nH]cn2)NC1=O
[Q] CCCC[C@H](NC(C)=O)C(=O)N[C@H]1CCC(=O)NCC[C@@H](C(N)=O)NC(=O)[C@H](CCCNC(=N)N)NC(=O)[C@@H](Cc2ccc(Cl)cc2)NC(=O)[C@H](CCCN)NC1=O [Example 9.59] (Ac-[Nle]E[Orn][dPhe(4-Cl)]R[Dab]-NH2; lactam 2-6)
Prompt: Record comparison, field Emax: mark the lower of P and Q . Answer by stating the label of the chosen item.
Response: P
(P: 69%, Q: 100%)
